System: cGMP-specific 3',5'-cyclic phosphodiesterase (Homo sapiens, UniProt O76074)
pIC50: −log10 of the molar value.
Outcome measure: pIC50

1. CCOC(=O)c1c(C2CN(c3cc(C(=O)NCCN(CC)CC)c4ccccc4n3)C2)nc2ccccn12 ... < 5.00

----------
System: cGMP-inhibited 3',5'-cyclic phosphodiesterase 3A (Homo sapiens)
Sequence (Q14432 whole entry): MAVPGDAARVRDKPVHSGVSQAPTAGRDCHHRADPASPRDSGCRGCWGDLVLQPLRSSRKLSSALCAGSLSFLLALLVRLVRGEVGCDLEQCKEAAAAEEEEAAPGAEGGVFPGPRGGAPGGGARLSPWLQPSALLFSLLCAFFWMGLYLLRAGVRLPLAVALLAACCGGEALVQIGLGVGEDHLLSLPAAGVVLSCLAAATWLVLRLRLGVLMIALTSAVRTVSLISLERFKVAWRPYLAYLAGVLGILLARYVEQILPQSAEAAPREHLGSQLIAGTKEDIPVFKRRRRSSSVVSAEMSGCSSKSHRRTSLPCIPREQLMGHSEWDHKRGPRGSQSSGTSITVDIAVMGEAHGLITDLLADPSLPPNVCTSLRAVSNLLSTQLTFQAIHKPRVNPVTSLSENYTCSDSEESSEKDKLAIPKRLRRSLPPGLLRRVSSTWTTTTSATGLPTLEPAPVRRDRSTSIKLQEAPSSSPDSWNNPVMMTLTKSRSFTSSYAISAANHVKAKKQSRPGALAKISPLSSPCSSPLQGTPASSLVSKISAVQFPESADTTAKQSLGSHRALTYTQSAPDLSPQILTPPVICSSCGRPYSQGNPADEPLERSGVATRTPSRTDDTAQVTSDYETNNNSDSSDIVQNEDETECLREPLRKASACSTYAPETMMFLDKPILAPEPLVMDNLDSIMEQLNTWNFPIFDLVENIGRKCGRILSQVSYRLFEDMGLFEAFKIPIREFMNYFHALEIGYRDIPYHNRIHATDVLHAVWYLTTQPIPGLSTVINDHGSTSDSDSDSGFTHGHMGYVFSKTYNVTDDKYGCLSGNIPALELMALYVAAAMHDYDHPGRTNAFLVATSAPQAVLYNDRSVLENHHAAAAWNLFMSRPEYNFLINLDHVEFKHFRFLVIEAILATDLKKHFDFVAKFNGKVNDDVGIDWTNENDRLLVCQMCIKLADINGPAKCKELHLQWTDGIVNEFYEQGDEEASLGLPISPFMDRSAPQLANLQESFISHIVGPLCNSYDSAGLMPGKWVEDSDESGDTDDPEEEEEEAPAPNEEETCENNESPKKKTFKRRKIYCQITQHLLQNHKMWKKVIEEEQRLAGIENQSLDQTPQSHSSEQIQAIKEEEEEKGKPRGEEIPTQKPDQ
Outcome measure: IC50

1. CCOC(=O)c1c(C2CN(c3cc(C(=O)NCCN(CC)CC)c4ccccc4n3)C2)nc2ccccn12 ... > 10 µM

----------
System: Dual specificity calcium/calmodulin-dependent 3',5'-cyclic nucleotide phosphodiesterase 1C (Homo sapiens)
Sequence (Q14123 whole entry, the tested form may be a part): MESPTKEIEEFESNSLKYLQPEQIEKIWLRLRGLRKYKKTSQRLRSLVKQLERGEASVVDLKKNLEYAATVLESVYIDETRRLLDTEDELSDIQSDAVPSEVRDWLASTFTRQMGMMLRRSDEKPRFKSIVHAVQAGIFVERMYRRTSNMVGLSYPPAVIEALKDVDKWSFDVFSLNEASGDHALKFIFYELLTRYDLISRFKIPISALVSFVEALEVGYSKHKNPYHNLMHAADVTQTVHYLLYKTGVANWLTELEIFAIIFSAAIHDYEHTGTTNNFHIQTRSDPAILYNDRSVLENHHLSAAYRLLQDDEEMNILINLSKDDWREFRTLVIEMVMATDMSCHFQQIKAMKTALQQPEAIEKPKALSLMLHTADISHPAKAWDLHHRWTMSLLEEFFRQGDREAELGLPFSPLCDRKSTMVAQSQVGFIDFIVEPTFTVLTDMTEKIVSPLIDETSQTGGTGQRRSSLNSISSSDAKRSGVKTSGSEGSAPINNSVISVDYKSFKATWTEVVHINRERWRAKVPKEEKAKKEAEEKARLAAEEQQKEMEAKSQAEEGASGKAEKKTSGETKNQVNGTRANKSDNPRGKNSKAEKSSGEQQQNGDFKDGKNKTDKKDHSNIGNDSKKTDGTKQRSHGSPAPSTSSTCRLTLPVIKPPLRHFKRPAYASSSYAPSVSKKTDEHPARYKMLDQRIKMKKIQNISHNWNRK
Assay notes: Inhibition of PDE1C (147 to 531 residues) (unknown origin) using 3H-cGMP/3H-cAMP as substrate incubated for 15 mins by liquid scintillation counter analysis
pIC50: −log10 of the molar value.
Outcome measure: pIC50

1) CCOC(=O)c1c(C2CN(c3cc(C(=O)NCCN(CC)CC)c4ccccc4n3)C2)nc2ccccn12 ... < 5.00

----------
System: Cytochrome P450 2C19 (Homo sapiens, UniProt P33261)
Sequence (P33261 whole entry): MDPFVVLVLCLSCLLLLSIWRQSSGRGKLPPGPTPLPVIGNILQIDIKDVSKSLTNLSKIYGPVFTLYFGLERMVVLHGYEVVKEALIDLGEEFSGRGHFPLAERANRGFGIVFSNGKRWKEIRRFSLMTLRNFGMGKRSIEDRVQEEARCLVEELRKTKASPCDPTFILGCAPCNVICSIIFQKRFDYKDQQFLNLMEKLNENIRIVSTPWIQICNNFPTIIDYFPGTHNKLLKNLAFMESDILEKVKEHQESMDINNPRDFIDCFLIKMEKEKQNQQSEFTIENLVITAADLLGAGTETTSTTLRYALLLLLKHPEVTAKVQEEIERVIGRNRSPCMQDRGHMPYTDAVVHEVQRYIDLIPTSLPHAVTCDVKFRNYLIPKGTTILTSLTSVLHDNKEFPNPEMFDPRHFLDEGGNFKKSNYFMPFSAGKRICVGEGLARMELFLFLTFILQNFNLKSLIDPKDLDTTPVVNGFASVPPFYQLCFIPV
Outcome measure: IC50

1) CCOC(=O)c1c(C2CN(c3cc(C(=O)NCCN(CC)CC)c4ccccc4n3)C2)nc2ccccn12 ... > 30 µM

----------
System: UniProt:Q9Y233
Sequence (Q9Y233 whole entry): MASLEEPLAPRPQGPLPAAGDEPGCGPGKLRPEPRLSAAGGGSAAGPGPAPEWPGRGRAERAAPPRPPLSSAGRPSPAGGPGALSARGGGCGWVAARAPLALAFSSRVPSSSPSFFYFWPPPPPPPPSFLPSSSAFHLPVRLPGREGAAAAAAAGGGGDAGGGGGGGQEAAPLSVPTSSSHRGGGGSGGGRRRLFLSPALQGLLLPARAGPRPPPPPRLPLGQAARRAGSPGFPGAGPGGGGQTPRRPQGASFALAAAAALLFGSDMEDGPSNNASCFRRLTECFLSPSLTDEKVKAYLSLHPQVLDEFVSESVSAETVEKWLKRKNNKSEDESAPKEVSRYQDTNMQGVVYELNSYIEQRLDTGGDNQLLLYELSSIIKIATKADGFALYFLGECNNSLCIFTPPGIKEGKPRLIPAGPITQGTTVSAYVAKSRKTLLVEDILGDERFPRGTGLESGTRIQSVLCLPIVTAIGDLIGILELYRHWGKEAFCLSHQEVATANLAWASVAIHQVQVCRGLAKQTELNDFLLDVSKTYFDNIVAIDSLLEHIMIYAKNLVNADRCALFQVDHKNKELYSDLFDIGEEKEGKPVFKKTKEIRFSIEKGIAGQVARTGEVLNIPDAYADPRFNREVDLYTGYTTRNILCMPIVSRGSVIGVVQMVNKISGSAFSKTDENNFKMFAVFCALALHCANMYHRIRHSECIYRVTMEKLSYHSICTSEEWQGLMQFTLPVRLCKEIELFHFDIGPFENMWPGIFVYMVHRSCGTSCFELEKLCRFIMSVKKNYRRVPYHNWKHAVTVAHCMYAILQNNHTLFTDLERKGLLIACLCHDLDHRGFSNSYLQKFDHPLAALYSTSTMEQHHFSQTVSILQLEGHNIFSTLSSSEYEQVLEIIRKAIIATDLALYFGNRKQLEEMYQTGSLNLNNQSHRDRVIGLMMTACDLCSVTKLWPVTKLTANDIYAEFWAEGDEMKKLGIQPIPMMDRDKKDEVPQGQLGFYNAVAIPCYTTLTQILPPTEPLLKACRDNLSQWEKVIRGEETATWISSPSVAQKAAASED
pIC50: −log10 of the molar value.
Outcome measure: pIC50

1. Cc1ccc2c(c1)nc(C1CN(c3nc(Cl)nc4ccccc34)C1)n2-c1ccccc1 ... 7.51

----------
System: UniProt:Q9HCR9
Sequence (Q9HCR9 whole entry): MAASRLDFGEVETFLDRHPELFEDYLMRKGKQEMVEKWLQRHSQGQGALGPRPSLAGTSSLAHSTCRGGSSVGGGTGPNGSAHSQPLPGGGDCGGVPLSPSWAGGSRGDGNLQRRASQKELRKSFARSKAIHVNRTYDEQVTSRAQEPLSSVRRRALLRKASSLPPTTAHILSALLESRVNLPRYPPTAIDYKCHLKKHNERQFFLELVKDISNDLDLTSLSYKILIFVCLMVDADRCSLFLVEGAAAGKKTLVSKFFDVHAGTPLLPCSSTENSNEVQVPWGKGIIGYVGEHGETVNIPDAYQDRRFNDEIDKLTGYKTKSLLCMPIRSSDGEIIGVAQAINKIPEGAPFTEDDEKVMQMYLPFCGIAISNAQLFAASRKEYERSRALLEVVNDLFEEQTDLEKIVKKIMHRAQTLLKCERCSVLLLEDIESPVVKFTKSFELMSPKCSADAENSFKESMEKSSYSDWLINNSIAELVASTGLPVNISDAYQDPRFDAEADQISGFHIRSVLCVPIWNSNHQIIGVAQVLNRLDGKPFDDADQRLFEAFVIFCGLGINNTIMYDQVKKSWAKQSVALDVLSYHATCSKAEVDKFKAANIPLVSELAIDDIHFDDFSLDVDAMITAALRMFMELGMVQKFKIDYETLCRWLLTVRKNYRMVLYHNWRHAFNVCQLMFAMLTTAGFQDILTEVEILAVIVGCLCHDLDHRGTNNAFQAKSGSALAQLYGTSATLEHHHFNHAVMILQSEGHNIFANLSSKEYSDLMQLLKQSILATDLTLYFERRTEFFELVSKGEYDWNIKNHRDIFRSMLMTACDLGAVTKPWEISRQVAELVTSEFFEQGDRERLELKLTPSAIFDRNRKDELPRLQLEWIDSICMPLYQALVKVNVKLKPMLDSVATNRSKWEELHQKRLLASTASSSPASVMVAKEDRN
Outcome measure: IC50

1) CCOC(=O)c1c(C2CN(c3cc(C(=O)NCCN(CC)CC)c4ccccc4n3)C2)nc2ccccn12 ... > 10 µM

----------
Assay notes: in vitro
Details: PAMPA
Outcome measure: Papp

1) Cc1ccc2c(c1)nc(/C=C/c1cccc3cccnc13)n2-c1cccc(OCCCN2CCN(C)CC2)c1 ... 1.47 ×10⁻⁶ cm/s

----------
System: Cytochrome P450 2C9 (Homo sapiens, UniProt P11712)
Sequence (P11712 whole entry): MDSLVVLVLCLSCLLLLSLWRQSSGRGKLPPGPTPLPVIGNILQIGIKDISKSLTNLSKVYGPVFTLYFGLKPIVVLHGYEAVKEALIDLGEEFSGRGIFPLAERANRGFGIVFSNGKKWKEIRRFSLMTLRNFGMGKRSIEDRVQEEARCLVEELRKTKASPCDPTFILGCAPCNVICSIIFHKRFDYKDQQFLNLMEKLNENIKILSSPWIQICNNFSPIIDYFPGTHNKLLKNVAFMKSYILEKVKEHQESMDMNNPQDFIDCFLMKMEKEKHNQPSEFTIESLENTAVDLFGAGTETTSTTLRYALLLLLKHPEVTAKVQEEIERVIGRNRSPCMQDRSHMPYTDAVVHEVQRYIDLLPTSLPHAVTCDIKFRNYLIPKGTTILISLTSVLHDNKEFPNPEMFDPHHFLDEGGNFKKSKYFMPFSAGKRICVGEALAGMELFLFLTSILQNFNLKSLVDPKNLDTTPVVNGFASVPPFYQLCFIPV
Outcome measure: IC50

1. CCOC(=O)c1c(C2CN(c3cc(C(=O)NCCN(CC)CC)c4ccccc4n3)C2)nc2ccccn12 ... > 30 µM
